Values compiled from patent US20240084003A1.

Biological target: T1, murine CD22 protein (ACROBiosystems, SI2-M52Ha) (murine, UniProt P35329 22-708)
T1 construct: extracellular domain; also called murine CD22-ECD; murine CD22-ECD-His
T1 sequence (looked up): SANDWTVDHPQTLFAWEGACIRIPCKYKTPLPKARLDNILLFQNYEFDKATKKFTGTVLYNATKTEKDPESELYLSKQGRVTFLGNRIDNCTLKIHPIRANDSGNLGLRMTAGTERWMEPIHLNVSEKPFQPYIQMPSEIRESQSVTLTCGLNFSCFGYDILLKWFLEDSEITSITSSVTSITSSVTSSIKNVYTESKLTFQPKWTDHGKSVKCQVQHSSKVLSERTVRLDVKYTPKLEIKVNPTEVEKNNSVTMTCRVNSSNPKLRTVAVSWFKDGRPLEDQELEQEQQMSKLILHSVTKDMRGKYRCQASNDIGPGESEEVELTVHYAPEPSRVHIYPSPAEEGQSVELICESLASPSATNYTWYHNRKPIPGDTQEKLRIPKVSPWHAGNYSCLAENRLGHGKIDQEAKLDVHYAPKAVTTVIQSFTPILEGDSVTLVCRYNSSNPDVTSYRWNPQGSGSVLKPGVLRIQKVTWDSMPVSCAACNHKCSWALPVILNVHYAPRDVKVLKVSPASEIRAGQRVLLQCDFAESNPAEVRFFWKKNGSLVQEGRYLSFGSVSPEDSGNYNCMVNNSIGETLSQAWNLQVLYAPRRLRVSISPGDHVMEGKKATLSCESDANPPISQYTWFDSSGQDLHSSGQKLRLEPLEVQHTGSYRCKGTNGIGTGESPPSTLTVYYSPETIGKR
Assay: ELISA, coated murine CD22, 0.0001 nM Ab
measureName: OD450 (OD450)
Entry rule: numbers only, all in OD450.

Please review the entries below; each comes with its answer.
- F1.200.11 human-murine chimeric antibody (antibody, human IgG1, kappa, V domains shown, Chimeric, human IgG1 / kappa) VH: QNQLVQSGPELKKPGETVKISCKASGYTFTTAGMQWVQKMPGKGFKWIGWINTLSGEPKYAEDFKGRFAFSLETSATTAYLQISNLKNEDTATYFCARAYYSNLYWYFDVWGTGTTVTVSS VL: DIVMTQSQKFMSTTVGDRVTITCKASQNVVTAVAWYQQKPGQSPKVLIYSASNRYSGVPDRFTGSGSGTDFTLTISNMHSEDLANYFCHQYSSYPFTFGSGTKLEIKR: 0.05
- F1.120.15 human-murine chimeric antibody (antibody, human IgG1, kappa, V domains shown, Chimeric, human IgG1 / kappa) VH: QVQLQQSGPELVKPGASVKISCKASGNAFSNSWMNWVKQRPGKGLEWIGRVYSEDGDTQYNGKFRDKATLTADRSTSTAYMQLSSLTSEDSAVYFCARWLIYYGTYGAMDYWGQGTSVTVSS VL: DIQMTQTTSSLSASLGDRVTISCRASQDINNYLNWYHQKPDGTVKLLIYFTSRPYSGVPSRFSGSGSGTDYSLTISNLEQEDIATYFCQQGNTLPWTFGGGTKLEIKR: 0.05
- F1.250.16 human-murine chimeric antibody (antibody, human IgG1, kappa, V domains shown, Chimeric, human IgG1 / kappa; VL tied by name) VH: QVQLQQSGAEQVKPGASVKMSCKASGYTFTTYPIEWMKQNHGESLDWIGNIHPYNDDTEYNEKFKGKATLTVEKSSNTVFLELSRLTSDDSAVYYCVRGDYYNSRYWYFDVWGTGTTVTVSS VL: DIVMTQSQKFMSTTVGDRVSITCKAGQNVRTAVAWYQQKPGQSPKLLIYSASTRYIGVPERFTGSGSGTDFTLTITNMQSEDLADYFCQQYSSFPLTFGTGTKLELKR: 0.05
- HA22-hIgG1 (antibody, V domains shown) VH: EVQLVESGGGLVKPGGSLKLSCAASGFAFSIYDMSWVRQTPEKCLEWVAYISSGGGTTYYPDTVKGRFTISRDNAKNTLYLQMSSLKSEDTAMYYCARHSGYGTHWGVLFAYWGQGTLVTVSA VL: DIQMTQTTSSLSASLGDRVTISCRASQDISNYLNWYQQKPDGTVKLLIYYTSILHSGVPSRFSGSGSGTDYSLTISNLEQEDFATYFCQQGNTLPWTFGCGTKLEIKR: 0.06

Turning to the following binder.
IN: May I ask what OD450 has been recorded for F2.121.9 human-murine chimeric antibody (antibody, human IgG1, lambda, V domains shown, Chimeric, human IgG1 / lambda) VH: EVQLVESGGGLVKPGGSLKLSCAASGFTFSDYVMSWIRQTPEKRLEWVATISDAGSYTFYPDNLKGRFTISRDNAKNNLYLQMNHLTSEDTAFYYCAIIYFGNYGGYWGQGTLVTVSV VL: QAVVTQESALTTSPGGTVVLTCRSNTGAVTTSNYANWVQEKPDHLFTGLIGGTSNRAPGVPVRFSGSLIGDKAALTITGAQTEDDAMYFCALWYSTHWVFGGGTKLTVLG ?
OUT: 0.06
